Target: T1, human EphA3 (Homo sapiens, UniProt P29320)
T1 construct: a protein of the extracellular region of each human Eph receptor fused with the SEAP protein and the His tag; made in house; host or cells: Expi293F cells (culture supernatant)
T1 sequence (P29320 21-541 limits assumed): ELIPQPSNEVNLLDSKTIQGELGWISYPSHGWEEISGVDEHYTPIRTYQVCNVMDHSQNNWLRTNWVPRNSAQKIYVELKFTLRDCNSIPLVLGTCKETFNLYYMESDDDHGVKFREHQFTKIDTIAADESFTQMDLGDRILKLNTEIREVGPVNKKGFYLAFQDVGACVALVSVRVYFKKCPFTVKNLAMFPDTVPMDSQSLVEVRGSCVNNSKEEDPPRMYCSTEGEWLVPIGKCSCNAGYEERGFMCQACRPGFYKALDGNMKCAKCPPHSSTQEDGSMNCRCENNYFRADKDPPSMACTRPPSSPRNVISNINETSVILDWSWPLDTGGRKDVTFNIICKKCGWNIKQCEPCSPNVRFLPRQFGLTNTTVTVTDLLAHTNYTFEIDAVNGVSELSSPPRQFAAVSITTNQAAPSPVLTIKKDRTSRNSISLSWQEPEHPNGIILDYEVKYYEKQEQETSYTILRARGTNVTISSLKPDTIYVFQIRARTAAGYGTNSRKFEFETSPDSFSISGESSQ
Assay: Selectivity ELISA of humanized antibodies for human Eph receptor
Assay type: binding
Conditions: coated protein 1 nM
Item-by-item account of hEphA3-SEAP-: absorbance at 450 nm, percentage with respect to hEphA4-SEAP-His as 100%
Numbers only; they are read as %.

// below: answered molecules
95 (antibody, V domains shown, constant regions without entry; synthetic humanized antibody light chain variable region sequence; synthetic humanized antibody heavy chain variable region sequence) VL: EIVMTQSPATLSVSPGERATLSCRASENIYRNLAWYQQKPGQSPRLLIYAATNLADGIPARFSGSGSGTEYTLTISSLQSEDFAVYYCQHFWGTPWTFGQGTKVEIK VH: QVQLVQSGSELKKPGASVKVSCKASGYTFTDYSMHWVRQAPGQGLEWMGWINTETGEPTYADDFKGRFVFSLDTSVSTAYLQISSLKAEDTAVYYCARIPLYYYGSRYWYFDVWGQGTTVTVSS ... 4.8
156 (antibody, V domains shown, synthetic humanized antibody heavy chain variable region sequence; synthetic humanized antibody light chain variable region sequence) VH: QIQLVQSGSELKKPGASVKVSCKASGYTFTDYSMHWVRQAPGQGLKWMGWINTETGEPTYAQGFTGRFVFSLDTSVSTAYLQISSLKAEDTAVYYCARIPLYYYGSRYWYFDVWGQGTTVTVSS VL: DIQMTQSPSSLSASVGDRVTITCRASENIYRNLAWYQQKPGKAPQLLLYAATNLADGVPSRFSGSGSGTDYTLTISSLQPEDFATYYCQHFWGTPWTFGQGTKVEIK ... 5.7
88 (antibody, V domains shown, constant regions without entry; synthetic humanized antibody light chain variable region sequence; synthetic humanized antibody heavy chain variable region sequence) VL: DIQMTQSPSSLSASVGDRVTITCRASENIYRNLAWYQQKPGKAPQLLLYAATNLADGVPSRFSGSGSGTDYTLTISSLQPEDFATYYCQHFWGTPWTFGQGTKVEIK VH: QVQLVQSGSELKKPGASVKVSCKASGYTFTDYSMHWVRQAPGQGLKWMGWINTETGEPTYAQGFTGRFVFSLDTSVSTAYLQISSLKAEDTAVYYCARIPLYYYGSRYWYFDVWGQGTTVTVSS ... 6.0

Shifting focus to the molecule that follows.
Query: // query hEphA3-SEAP-: absorbance at 450 nm, percentage with respect to hEphA4-SEAP-His as 100% value for entry 138 (antibody, V domains shown, synthetic humanized antibody heavy chain variable region sequence; synthetic humanized antibody light chain variable region sequence) VH: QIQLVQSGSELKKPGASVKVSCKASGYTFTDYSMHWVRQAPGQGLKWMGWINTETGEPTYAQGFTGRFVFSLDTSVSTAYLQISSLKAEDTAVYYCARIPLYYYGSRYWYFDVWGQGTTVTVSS VL: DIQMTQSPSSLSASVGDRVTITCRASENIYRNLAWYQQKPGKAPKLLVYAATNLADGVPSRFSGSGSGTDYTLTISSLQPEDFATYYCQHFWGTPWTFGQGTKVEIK
Result: 4.9
